# test-target: recombinant RORγ Ligand Binding Domain (LBD) protein (Homo sapiens (Human), UniProt P51449)
# Sequence (P51449 269-508): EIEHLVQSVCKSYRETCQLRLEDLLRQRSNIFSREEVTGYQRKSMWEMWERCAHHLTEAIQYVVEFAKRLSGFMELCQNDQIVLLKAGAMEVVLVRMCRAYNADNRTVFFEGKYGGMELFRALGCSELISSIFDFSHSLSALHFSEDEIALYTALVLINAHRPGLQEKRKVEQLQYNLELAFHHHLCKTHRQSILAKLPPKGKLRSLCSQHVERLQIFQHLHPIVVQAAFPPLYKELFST
# test-name: Radio-Ligand RORγ Binding Assay (Assay 1)
# condition-parameters: competition with 25-hydroxy [26,27-3H]-cholesterol, SPA; Table 9; read-out: RORγ Binding Ki Range*
Ki by entry:
observation-type: Ki

molecule	observed-value
CCS(=O)(=O)c1ccc(CC(=O)Nc2nc3c(s2)CN(C[C@H]2CC[C@@H](C(F)(F)F)N(C)C2)[C@H]3C(C)C)cc1 (relative stereo)	< 0.1 µM
CC(C)[C@H]1c2nc(NC(=O)Cc3ccc(S(C)(=O)=O)cc3)sc2CN1[C@@H](C)c1ccc(C(F)(F)F)nc1 (single isomer, unassigned)	< 0.1 µM
CC[C@H]1c2nc(NC(=O)Cc3ccc(S(C)(=O)=O)cc3)sc2CN1Cc1ccc2nn[nH]c2c1	< 0.1 µM
CCS(=O)(=O)c1ccc(CC(=O)Nc2nc3c(s2)CN(Cc2cc(Cl)ccc2Cl)[C@@H]3C(C)C)cc1	< 0.1 µM
CCS(=O)(=O)c1cnc(CC(=O)Nc2nc3c(s2)CN(Cc2ccc(C#N)cc2)[C@H]3C(C)C)nc1	< 0.1 µM
CCS(=O)(=O)c1ccc(CC(=O)Nc2nc3c(s2)CN(C[C@@H]2CC[C@@H](C(F)(F)F)N(C4CC4)C2)[C@H]3C(C)C)cc1 (single isomer, unassigned)	< 0.1 µM
CC(C)[C@H]1c2nc(NC(=O)Cc3ccc(S(C)(=O)=O)cc3)sc2CN1[C@H](C)c1ccc(C(F)(F)F)nc1 (single isomer, unassigned)	< 0.1 µM
CCOC(=O)c1cnc(N2Cc3sc(NC(=O)Cc4ccc(S(=O)(=O)CC)cc4)nc3C2(C)C)nc1C(F)(F)F	0.1 to 1 µM
CCS(=O)(=O)c1ccc(CC(=O)Nc2nc3c(s2)CN(C[C@H]2CC[C@](C)(C#N)CC2)[C@H]3C(C)C)nc1 (single isomer, unassigned)	< 0.1 µM
CC(C)[C@H]1c2nc(NC(=O)Cc3ccc(C#N)cc3)sc2CN1Cc1ccc(C#N)cc1	< 0.1 µM
CCS(=O)(=O)c1ccc(CC(=O)Nc2nc3c(s2)CN(Cc2ccc(C(F)(F)F)c(Cl)c2)[C@@H]3C(C)C)cc1	< 0.1 µM
CCS(=O)(=O)c1ccc(CC(=O)Nc2nc3c(s2)CN(C[C@@H]2CC[C@H](C(F)(F)F)N(C4CC4)C2)[C@H]3C(C)C)cc1 (single isomer, unassigned)	< 0.1 µM
CCS(=O)(=O)c1ccc(CC(=O)Nc2nc3c(s2)CN(CCc2ccc(Cl)cc2)[C@H]3C(C)C)cc1	< 0.1 µM
CC[C@H]1c2nc(NC(=O)Cc3ccc(F)cc3)sc2CN1Cc1ccc(Cl)cc1	< 0.1 µM
CCS(=O)(=O)c1ccc(CC(=O)Nc2nc3c(s2)CN(C[C@H]2C[C@H](C(N)=O)C2)[C@H]3C(C)C)cc1 (relative stereo)	0.1 to 1 µM
CCS(=O)(=O)c1ccc(CC(=O)Nc2nc3c(s2)CN(Cc2ccc(C#N)c(F)c2)[C@@H]3C(C)C)cc1	0.1 to 1 µM
CCS(=O)(=O)c1ccc(CC(=O)Nc2nc3c(s2)CN(C[C@H]2CC[C@@](C)(C#N)CC2)[C@H]3C(C)C)cc1 (single isomer, unassigned)	< 0.1 µM
CCS(=O)(=O)c1ccc(CC(=O)Nc2nc3c(s2)CN(Cc2ccc(N)nc2)[C@H]3C(C)C)cc1	< 0.1 µM
CC[C@@]1(C)c2nc(NC(=O)Cc3ccc(S(=O)(=O)CC)cc3)sc2CN1Cc1ccc(Cl)cc1	< 0.1 µM
CCS(=O)(=O)c1ccc(CC(=O)Nc2nc3c(s2)CN(Cc2ccc(OC(F)(F)F)cc2)[C@@H]3C(C)C)cc1	< 0.1 µM
CCS(=O)(=O)c1ccc(CC(=O)Nc2nc3c(s2)CN(Cc2ccnc(C(F)(F)F)c2)[C@@H]3C(C)C)cc1	0.1 to 1 µM
CCS(=O)(=O)c1ccc(CNC(=O)c2nc3c(s2)CN(C[C@H]2CC[C@H](C(F)(F)F)CC2)[C@H]3C(C)C)cc1 (relative stereo)	< 0.1 µM
CCS(=O)(=O)c1ccc(CC(=O)Nc2nc3c(s2)CN(C2CCC(C(F)(F)F)CC2)[C@H]3C(C)C)cc1 (some centres unmarked)	< 0.1 µM
CC(C)[C@H]1c2nc(NC(=O)CC3CCS(=O)(=O)CC3)sc2CN1Cc1ccc(Cl)cc1	0.1 to 1 µM
CCS(=O)(=O)c1ccc(CC(=O)Nc2nc3c(s2)CN(C[C@H]2CC[C@@](O)(C(F)(F)F)CC2)[C@H]3C(C)C)cc1 (single isomer, unassigned)	< 0.1 µM
CCS(=O)(=O)c1ccc(CC(=O)Nc2nc3c(s2)CN(CC2CCNC(=O)C2)[C@H]3C(C)C)cc1 (some centres unmarked)	0.1 to 1 µM
CCS(=O)(=O)c1ccc(CC(=O)Nc2nc3c(s2)CN(C[C@H]2CC[C@@](C)(C#N)CC2)[C@H]3C(C)C)nc1 (single isomer, unassigned)	< 0.1 µM
CC(C)[C@H]1c2nc(NC(=O)Cc3ccc(C(C)(C)C#N)cc3)sc2CN1Cc1ccc(Cl)cc1	< 0.1 µM
CC(C)[C@H]1c2nc(NC(=O)Cc3ccc(F)c(F)c3)sc2CN1Cc1ccc(C(F)(F)F)cc1	0.1 to 1 µM
